Hey, just so you know, these numbers are from paper PMC6451107.

target: MLE dsRBD1+2 N223A/K224A/K225A (Drosophila, UniProt P24785 1-264, N223A;K224A;K225A); assay: fluorescence polarization; FP: 80 nM 3'-FAM RNA stock mixed 1:1 with protein, buffer D (composition not in material), 15 min, 20 C; EMSA: 1200 nM RNA stock mixed 1:1 with protein, buffer; settings: protein: recombinant; tags: SUMO tag removed by ULP1; label: 3'-FAM; hairpin, 13 nt loop (C135-C147)
Sequence (P24785 1-264 N223A/K224A/K225A): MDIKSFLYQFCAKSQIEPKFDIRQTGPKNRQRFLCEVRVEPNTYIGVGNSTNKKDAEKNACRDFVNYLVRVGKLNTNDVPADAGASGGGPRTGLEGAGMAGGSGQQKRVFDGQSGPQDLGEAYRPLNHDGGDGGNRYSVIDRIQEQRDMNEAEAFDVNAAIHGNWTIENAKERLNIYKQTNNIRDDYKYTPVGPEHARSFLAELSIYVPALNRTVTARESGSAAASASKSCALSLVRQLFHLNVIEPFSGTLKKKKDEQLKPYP
Recorded endpoint: pKd
Schema: pKd number; meaning minus log10 of the concentration expressed in molar units.

Ask: Return pKd (reported value) for this binder: R2H1 55mer (FAM) (structured_RNA) RNA: GCUUUAGAGAUCGUUUCGAAUCACAUUGAUAAUCGUUCGAAACGUUCUCCGAAGC
Reply: 4.72
